quantityMeasured: melting point (°C)
Please give a number only; it is taken to be in °C.

Here's what some known entries look like.
In [3]: df
Out[3]:
                                   compound  resultvalue
0  Cn1cncc1C(N)(c1ccc(Cl)cc1)c1ccc2c(c1)c(CCc1cccc(Cl)c1)cc(=O)n2C (stereo not shown)          165
1  Cn1cncc1C(O)(c1ccc(Cl)cc1)c1ccc2c(c1)c(CCc1cccc(Cl)c1)cc(=O)n2C (stereo not shown)          190
2  Cc1cccc(N(C)C(=O)c2cc(=O)n(C)c3ccc(C(O)(c4ccc(Cl)cc4)c4cncn4C)cc23)c1 (stereo not shown)          185

Read the entry O=c1[nH]c2ccc(C(c3ccc(Cl)cc3)n3ccnc3-c3ccccc3)cc2c(Oc2cccc(Cl)c2)c1CO (stereo not shown) and write its reported melting point.
246

====

quantityMeasured: melting point (°C)
Write the number in °C without appending the unit.

Example results:
                                   compound  quantitymeasured  unitstext  resultvalue
0  Cn1c(=O)cc(CCc2cccc(Cl)c2)c2cc(C(O)(c3ccc(Cl)cc3)c3cccnc3)ccc21 (stereo not drawn) [Example B14]     melting point         °C          115
1  CN(C(=O)c1cc(=O)n(C)c2ccc(C(O)(c3ccc(Cl)cc3)c3cncn3C)cc12)c1cccc(Cl)c1 (stereo not drawn) [Example B11]     melting point         °C          218

Kindly consider the entry below.
Consider the compound Cn1c(=O)cc(CCc2cccc(Cl)c2)c2cc(C(N)(c3ccc(Cl)cc3)c3cccnc3)ccc21 (stereo not drawn) [Example B15] . State its measured melting point.
90

====

quantityMeasured: melting point (°C)
Answer in °C, number only, no unit symbol.

Please indicate melting point recorded for O=c1cc(Oc2ccccc2)c2cc(C(c3ccc(Cl)cc3)n3ccnc3)ccc2[nH]1 (racemic)
233.3

Item CCOC(=O)c1c(Oc2cccc(Cl)c2)c2cc(C(c3ccc(Cl)cc3)c3cnc(-c4ccccc4)[nH]3)ccc2[nH]c1=O (stereo not drawn) : provide melting point
189

Hello, please tell me recorded melting point for this one: Cn1cnnc1C(O)(c1ccc(Cl)cc1)c1ccc2c(c1)c(CCc1cccc(Cl)c1)cc(=O)n2C (stereo not drawn)
200

The values you see were collected from patent US7129356B2.
